# Target Or Test System: Neuronal acetylcholine receptor; alpha4/beta2 (Homo sapiens, UniProt P17787+P43681)
# Sequence (P17787 whole entry): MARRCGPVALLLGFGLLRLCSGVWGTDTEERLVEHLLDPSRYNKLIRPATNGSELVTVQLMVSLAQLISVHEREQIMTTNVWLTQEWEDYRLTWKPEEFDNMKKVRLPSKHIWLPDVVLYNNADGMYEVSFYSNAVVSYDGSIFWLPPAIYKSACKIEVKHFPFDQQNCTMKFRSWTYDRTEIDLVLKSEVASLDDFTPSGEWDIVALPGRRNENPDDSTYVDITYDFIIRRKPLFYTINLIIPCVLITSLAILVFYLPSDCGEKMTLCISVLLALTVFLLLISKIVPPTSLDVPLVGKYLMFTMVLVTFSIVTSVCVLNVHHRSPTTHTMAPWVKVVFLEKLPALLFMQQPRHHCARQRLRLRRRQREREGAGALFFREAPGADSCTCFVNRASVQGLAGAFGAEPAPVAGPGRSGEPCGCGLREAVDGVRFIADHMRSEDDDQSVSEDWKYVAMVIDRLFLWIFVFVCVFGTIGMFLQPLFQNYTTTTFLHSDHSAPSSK
# Sequence (P43681 whole entry): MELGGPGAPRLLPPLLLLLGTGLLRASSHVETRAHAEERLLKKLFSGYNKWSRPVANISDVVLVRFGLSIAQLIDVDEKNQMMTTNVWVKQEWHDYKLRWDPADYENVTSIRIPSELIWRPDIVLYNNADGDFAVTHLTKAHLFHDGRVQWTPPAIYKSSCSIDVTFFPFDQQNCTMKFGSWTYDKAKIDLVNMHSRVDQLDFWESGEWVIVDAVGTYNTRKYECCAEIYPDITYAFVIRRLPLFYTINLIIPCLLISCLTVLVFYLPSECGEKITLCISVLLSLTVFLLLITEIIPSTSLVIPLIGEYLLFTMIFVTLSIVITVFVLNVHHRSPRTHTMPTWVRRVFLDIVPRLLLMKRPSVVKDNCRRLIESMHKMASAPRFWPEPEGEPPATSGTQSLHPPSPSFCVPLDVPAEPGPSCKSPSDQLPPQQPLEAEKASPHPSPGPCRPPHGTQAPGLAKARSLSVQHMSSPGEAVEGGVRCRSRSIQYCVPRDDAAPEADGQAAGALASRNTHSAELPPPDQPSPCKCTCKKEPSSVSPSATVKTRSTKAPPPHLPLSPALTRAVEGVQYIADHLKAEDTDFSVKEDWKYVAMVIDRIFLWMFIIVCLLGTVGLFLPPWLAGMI
# Method Summary: Inhibition of alpha4beta2 nAchR expressed in Xenopus laevis oocytes assessed as acetylcholine-induced current by voltage-clamp method
# Type: cell-based, Oocyte
Measured IC50 values are reported for all entries that follow.
// units = µM; emit number, no label

Example results:
Molecular String	IC50 (µM)
C#CCCC[C@@H]1CC[C@@H](CC)[C@@H]2CCCCN12	5.1
CCCCCC[C@@H]1CC[C@@H](CC)[C@@H]2CCCCN12	2.5

Kindly consider the entry below.
Query block: IC50 lookup needed for C=CCCC[C@@H]1CC[C@@H](CC)[C@@H]2CCCCN12 , thanks.
Result block: 3.5

====

The following compounds are shown together with reported IC50 values.
# Target Or Test System: Neuronal acetylcholine receptor subunit alpha-7 (Homo sapiens, UniProt P36544)
# Sequence (P36544 whole entry): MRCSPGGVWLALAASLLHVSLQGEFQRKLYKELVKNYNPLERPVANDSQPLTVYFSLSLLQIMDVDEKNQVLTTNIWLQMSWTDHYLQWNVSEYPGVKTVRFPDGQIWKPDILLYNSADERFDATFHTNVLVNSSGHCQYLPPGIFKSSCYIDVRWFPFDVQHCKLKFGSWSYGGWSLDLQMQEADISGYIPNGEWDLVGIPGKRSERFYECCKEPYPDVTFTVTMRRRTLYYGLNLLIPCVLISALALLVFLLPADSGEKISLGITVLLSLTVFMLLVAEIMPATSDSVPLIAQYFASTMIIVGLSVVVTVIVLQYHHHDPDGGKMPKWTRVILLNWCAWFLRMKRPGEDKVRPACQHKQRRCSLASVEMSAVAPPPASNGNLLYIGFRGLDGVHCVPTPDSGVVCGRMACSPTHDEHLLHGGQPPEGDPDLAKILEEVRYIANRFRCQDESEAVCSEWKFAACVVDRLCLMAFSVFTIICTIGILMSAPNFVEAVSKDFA
# Method Summary: Inhibition of alpha-7 nAchR expressed in Xenopus laevis oocytes assessed as acetylcholine-induced current by voltage-clamp method
Give a bare numeral; the unit µM is implied.

These recorded examples may help you get a feel for the data.
Molecular String	Reported Metric	Val
C=CCCC[C@@H]1CC[C@@H](CC)[C@@H]2CCCCN12	IC50	5.2
C#CCCC[C@@H]1CC[C@@H](CC)[C@@H]2CCCCN12	IC50	7.4

Could you now consider this next compound?
Query block: Entry CCCCCC[C@@H]1CC[C@@H](CC)[C@@H]2CCCCN12 : reported IC50 = ?
Result block: 4.1
